# maps each entry to its hEphB2-SEAP-: absorbance at 450 nm, percentage with respect to hEphA4-SEAP-His as 100%
Target: T1, human EphB2 (Homo sapiens, UniProt P29323)
T1 construct: a protein of the extracellular region of each human Eph receptor fused with the SEAP protein and the His tag; made in house; host or cells: Expi293F cells
T1 sequence (P29323 19-543 limits assumed): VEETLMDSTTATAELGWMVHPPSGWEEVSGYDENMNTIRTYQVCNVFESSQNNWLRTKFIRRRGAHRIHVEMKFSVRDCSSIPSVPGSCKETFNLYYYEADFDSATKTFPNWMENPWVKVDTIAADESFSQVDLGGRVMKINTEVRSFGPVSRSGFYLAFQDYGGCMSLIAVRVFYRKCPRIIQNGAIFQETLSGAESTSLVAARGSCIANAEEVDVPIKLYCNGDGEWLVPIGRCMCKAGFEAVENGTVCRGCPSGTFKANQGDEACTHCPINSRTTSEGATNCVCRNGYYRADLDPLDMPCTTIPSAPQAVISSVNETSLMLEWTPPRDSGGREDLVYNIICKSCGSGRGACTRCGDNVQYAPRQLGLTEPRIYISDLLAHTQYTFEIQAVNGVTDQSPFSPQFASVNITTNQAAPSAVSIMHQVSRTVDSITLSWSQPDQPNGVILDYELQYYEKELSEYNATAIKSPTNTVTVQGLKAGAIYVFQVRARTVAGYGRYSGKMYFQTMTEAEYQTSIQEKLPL
Experiment: Selectivity ELISA of humanized antibodies for human Eph receptor
Assay type: binding
Settings: coated protein 1 nM
Text: According to the method described in Example 7, a DNA sequence encoding the signal sequence and the extracellular region of each human Eph receptor (EphA1, EphA2, EphA3, EphA4, EphA5, EphA6, EphA7, EphA8, EphA10, EphB1, EphB2, EphB3, EphB4, and EphB6) was amplified by RT-PCR using tissue-derived total RNA and cloned into a pENTR1A vector (Invitrogen/Life Technologies) having a DNA sequence encoding SEAP protein and histidine tag. […]
API: value field is a number in %; no unit string.

{"molecule": "141 (antibody, V domains shown, synthetic humanized antibody heavy chain variable region sequence; synthetic humanized antibody light chain variable region sequence) VH: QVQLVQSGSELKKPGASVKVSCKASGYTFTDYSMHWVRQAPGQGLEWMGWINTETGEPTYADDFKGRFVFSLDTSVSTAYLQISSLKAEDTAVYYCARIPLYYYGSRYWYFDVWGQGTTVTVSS VL: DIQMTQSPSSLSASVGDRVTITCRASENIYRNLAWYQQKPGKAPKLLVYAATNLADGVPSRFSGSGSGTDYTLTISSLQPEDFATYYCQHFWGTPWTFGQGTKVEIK", "unit.of.measure": "%", "value.reported": 5.2}

Would you kindly look at the next entry?
Quick one: hEphB2-SEAP-: absorbance at 450 nm, percentage with respect to hEphA4-SEAP-His as 100% for 69 (antibody, V domains shown, synthetic humanized antibody heavy chain variable region sequence; synthetic humanized antibody light chain variable region sequence) VH: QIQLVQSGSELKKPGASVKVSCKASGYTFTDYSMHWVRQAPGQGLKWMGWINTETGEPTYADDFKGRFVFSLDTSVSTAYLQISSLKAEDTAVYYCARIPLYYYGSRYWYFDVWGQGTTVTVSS VL: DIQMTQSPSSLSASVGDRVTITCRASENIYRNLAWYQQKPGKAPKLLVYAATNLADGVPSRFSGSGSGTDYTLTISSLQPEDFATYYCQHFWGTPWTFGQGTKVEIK ?
5.5

FYI, the data here is from patent US10428140B2.
